All figures here come from the supplement of paper PMC10307832.

The reader will find reported relative viability values listed item by item below.
Tested on: LU99A
procedure-details: relative viability (nuclei count vs DMSO), 5 days (fraction); higher = more cells survive
assay-context: first compound 0.02 µM
# answer = number (no unit)

relative viability lookup needed for CC(=O)O[C@@]12CO[C@@H]1C[C@H](O)[C@@]1(C)C(=O)[C@H](O)C3=C(C)[C@@H](OC(=O)[C@H](O)[C@@H](NC(=O)OC(C)(C)C)c4ccccc4)C[C@@](O)([C@@H](OC(=O)c4ccccc4)[C@H]21)C3(C)C [Docetaxel] + CC(C)C[C@H](NC(=O)[C@H](Cc1ccccc1)NC(=O)c1cnccn1)B(O)O [Bortezomib] (partner 0.002 µM) , thanks.
0.221

Also check CC(=O)O[C@@]12CO[C@@H]1C[C@H](O)[C@@]1(C)C(=O)[C@H](O)C3=C(C)[C@@H](OC(=O)[C@H](O)[C@@H](NC(=O)OC(C)(C)C)c4ccccc4)C[C@@](O)([C@@H](OC(=O)c4ccccc4)[C@H]21)C3(C)C [Docetaxel] + CS(=O)(=O)CCNCc1ccc(-c2ccc3ncnc(Nc4ccc(OCc5cccc(F)c5)c(Cl)c4)c3c2)o1 [Lapatinib] (partner 2 µM)
0.188
